Catalogue of mean signal readings, one per entry.
# test_protocol: modulation of C. elegans fzo-1 (AID 1259413);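 also: fzo-1 mutant C. elegans worms in liquid wells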
# test_conditions: C. elegans fzo-1 modulator screen, mean read-out; stronger effect = higher value
reported_endpoint: mean signal

{"molecule": "CC1CCN(CCCC(=O)c2ccc(F)cc2)CC1", "reported_endpoint": "mean signal", "assay_result": 246}
{"molecule": "O=C(CCNNC(=O)c1ccncc1)NCc1ccccc1", "reported_endpoint": "mean signal", "assay_result": 273}
{"molecule": "COc1cccc2c1C(=O)c1c(O)c3c(c(O)c1C2=O)C[C@@](O)(C(=O)CO)C[C@@H]3O[C@H]1C[C@H](N)[C@H](O)[C@H](C)O1", "reported_endpoint": "mean signal", "assay_result": 234}
{"molecule": "CCc1c(C)[nH]c2c1C(=O)C(CN1CCOCC1)CC2 (configuration not stated)", "reported_endpoint": "mean signal", "assay_result": 257}
{"molecule": "CC(C(=O)O)c1ccc(CC2CCCC2=O)cc1 (configuration not stated)", "reported_endpoint": "mean signal", "assay_result": 276}
{"molecule": "CC(C)(C)C(O)/C=C/c1ccc2c(c1)OCO2 (configuration not stated)", "reported_endpoint": "mean signal", "assay_result": 280}
{"molecule": "O=C1CCc2ccc(OCCCCN3CCN(c4cccc(Cl)c4Cl)CC3)cc2N1", "reported_endpoint": "mean signal", "assay_result": 231}

* * *

Catalogue of score readings, one per entry.
# test_protocol: yeast 75Q aggregation reduction – 75Q-TubU reporter (AID 1593)
# test_conditions: Yeast 75Q polyglutamine aggregation reporter
reported_endpoint: score

{"compound": "C[N+](C)(C)CCCCCC[N+](C)(C)C", "reported_endpoint": "score", "assay_result": 1.14}
{"compound": "O=C(O)c1ccccc1C(=O)Nc1ccc(S(=O)(=O)Nc2nccs2)cc1", "reported_endpoint": "score", "assay_result": 1.11}
{"compound": "CC(NCCC(c1ccccc1)c1ccccc1)c1ccccc1 (stereo not given)", "reported_endpoint": "score", "assay_result": 1.04}
{"compound": "NC(=O)NC(=O)Cc1ccccc1", "reported_endpoint": "score", "assay_result": 1.34}
{"compound": "Cc1cc(CC(=O)O)n(C)c1C(=O)c1ccc(Cl)cc1", "reported_endpoint": "score", "assay_result": 0.85}

Hey, just so you know, these numbers are from PubChem BioAssay.
